Exercise: for every item that follows, state its recorded Ki.
Molecular target: A1 receptors from rat brain membranes (Rattus norvegicus, UniProt P25099)
Construct: Rat cerebral cortical and striatal membranes were prepared; from tissue; host or cells: rat brain (cerebral cortical) membranes
Sequence (P25099 1-326): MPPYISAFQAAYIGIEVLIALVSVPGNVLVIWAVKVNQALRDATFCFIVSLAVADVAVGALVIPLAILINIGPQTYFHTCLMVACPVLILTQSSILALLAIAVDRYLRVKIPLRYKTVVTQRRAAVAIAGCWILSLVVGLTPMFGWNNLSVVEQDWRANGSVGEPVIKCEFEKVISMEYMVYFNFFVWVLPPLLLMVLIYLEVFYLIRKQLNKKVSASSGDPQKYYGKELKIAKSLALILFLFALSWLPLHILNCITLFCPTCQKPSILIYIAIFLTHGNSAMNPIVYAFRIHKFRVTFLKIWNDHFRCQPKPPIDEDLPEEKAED
Experiment: biochemical
Assay type: binding
Settings: rat brain membranes, displacement of [3H]PIA (or [3H]CHA); read-out: A1 affinity Ki

QUERY: Return Ki for the following compound: `CCNC(=O)[C@H]1O[C@@H](n2cnc3c(NCc4ccccc4OC)ncnc32)[C@H](O)[C@@H]1O`
RESULT: 52 nM

QUERY: Return Ki for the following compound: `CCNC(=O)[C@H]1O[C@@H](n2cnc3c(NCc4cccc(Cl)c4)ncnc32)[C@H](O)[C@@H]1O`
RESULT: 22 nM

QUERY: Return Ki for the following compound: `CCCCn1c(=O)c2c(ncn2[C@@H]2O[C@H](CO)[C@@H](O)[C@H]2O)n(CCCC)c1=O`
RESULT: 4190 nM

QUERY: Return Ki for the following compound: `CNC(=O)[C@H]1O[C@@H](n2cnc3c(NCc4ccccc4)ncnc32)[C@H](O)[C@@H]1O`
RESULT: 898 nM

QUERY: Return Ki for the following compound: CCNC(=O)[C@H]1O[C@@H](n2cnc3c(N[C@H](C)c4ccccc4)ncnc32)[C@H](O)[C@@H]1O [Compound 55, N^6 -(R-phenylethyl)-NECA]
RESULT: 3.2 nM

QUERY: Return Ki for the following compound: `CCNC(=O)[C@H]1O[C@@H](n2cnc3c(NCc4cccc(F)c4)ncnc32)[C@H](O)[C@@H]1O`
RESULT: 51 nM

QUERY: Return Ki for the following compound: `CNC(=O)[C@H]1O[C@@H](n2cnc3c(NCc4ccc(N)cc4)ncnc32)[C@H](O)[C@@H]1O`
RESULT: 431 nM
